Record form. Attribute: pIC50. Fill in for each entry.
biological target: Solute carrier family 22 member 2 (Rattus norvegicus); assay: TP_TRANSPORTER: inhibition of TEA uptake (in the absence of bicarbonate) (TEA: 20 uM) in OCT2-expressing HEK293 cells; format: functional, cell-based
Sequence (Q9R0W2 whole entry): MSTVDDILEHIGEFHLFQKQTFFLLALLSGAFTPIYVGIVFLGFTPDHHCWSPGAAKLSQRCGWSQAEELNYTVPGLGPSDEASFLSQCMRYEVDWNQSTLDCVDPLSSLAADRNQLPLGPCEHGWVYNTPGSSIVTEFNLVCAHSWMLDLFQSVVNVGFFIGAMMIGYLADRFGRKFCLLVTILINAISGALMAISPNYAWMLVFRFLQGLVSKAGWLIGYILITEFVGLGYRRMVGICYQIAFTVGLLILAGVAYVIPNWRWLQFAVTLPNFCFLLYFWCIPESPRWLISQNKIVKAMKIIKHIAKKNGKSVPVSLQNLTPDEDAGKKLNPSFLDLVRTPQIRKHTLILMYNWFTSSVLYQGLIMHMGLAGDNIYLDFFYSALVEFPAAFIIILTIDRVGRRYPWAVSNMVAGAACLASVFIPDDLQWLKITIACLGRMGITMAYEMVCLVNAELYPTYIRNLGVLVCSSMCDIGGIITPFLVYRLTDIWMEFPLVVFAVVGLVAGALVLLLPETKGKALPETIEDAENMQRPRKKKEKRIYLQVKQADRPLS
For clarity, pIC50 is expressed as the negative log10 of concentration in mol/L.

input: # pIC50 lookup, item `C=C[C@H]1C[N@@]2CC[C@H]1C[C@H]2[C@H](O)c1ccnc2ccc(OC)cc12`
output: 4.42

input: For the molecule CCN(CC)CCNC(=O)c1ccc(N)cc1 [PROCAINAMIDE] , what pIC50 is on record?
output: 3.67

input: Item under review: `NC12CC3CC(CC(C3)C1)C2` . Reported pIC50?
output: 3.54

input: Fill in: pIC50 of CC[n+]1c(CC2C=C(C)N=C(c3ccccc3)N2C)ccc2ccccc21 (centres undefined) is ___
output: 5.92

---

Molecular target: Solute carrier family 22 member 1 (Rattus norvegicus)
Sequence (Q63089 whole entry): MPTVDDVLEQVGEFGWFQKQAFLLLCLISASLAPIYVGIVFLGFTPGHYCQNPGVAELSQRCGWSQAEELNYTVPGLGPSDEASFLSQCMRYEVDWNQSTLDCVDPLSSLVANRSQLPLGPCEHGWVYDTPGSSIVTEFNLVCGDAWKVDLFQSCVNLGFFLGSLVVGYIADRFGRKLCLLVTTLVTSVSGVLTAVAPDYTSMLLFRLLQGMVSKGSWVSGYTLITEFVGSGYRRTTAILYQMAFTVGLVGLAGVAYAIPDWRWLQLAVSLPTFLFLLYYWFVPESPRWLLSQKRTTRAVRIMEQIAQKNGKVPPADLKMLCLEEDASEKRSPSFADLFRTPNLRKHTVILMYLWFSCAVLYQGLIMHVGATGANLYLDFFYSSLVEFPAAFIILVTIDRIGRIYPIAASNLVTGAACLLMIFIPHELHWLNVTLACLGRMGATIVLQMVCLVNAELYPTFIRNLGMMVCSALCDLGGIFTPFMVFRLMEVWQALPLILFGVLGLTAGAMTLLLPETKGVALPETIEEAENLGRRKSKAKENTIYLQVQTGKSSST
Test: TP_TRANSPORTER: inhibition of TEA uptake (in the presence of bicarbonate) (TEA: 20 uM) in OCT1-expressing HEK293 cells
Type: functional, cell-based
measurement_kind: IC50

input: Which IC50 reading was recorded for the compound `NC12CC3CC(CC(C3)C1)C2` ?
output: 500 µM

input: For CC[n+]1c(CC2C=C(C)N=C(c3ccccc3)N2C)ccc2ccccc21 (configuration not stated) , what is its reported IC50?
output: 0.4 µM

Hey, just so you know, these numbers are from ChEMBL document CHEMBL2074271.
